- Target System: L-Selectin (Homo sapiens)
- Sequence (P14151 39-372): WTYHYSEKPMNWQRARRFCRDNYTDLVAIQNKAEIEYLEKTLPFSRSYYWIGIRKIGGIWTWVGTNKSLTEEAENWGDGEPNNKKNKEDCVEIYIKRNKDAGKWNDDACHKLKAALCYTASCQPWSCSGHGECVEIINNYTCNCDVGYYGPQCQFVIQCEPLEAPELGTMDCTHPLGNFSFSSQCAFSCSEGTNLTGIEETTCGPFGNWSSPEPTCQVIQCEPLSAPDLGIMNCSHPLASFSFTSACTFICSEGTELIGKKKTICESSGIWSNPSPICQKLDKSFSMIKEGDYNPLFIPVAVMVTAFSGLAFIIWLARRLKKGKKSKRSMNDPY
- Assay: ELISA inhibition of recombinant L-selectin binding to immobilized SLe^x
- Condition Parameters: mean of 3 determinations, read-out: IC50 Values Against SLe^x, L-Selectin
For each record, write down the corresponding IC50.
One number for each entry, in µM.

Reference set (3 entries):
CO[C@H]1O[C@H](CO[C@@H]2O[C@H](CO)[C@@H](O[C@@H]3O[C@H](CO)[C@H](O)[C@H](O)[C@H]3NC(C)=O)[C@H](O[C@@H]3O[C@@H](C)[C@@H](O)[C@@H](O)[C@@H]3O)[C@H]2NC(C)=O)[C@H](O)[C@H](O[C@@H]2O[C@H](CO)[C@H](O)[C@H](O)[C@H]2O)[C@H]1NC(C)=O ... 300
CO[C@@H]1O[C@H](CO)[C@@H](O[C@@H]2O[C@H](CO)[C@H](O)[C@H](O)[C@H]2NC(C)=O)[C@H](O[C@@H]2O[C@@H](C)[C@@H](O)[C@@H](O)[C@@H]2O)[C@H]1NC(C)=O ... 300
CO[C@H]1O[C@H](CO[C@@H]2O[C@H](CO)[C@@H](O[C@@H]3O[C@H](CO)[C@H](O)[C@H](O)[C@H]3NC(C)=O)[C@H](O[C@@H]3O[C@@H](C)[C@@H](O)[C@@H](O)[C@@H]3O)[C@H]2NC(C)=O)[C@H](O)[C@H](O[C@@H]2O[C@H](CO)[C@H](O)[C@H](OS(=O)(=O)O)[C@H]2O)[C@H]1NC(C)=O ... 500

# ---- query compound ----
Prompt line: Fill: IC50 (L-Selectin (Homo sapiens)) for this compound CO[C@H]1O[C@H](CO[C@@H]2O[C@H](CO)[C@@H](O[C@@H]3O[C@H](CO)[C@H](O)[C@H](O)[C@H]3NC(C)=O)[C@H](O[C@@H]3O[C@@H](C)[C@@H](O)[C@@H](O)[C@@H]3O)[C@H]2NC(C)=O)[C@H](O)[C@H](O[C@@H]2O[C@H](CO)[C@H](O)[C@H](O[C@]3(C(=O)O)C[C@H](O)[C@@H](NC(C)=O)[C@H]([C@H](O)[C@H](O)CO)O3)[C@H]2O)[C@H]1NC(C)=O
Response line: 105

---

- Target System: P-Selectin (Homo sapiens)
- Sequence (P16109 42-830): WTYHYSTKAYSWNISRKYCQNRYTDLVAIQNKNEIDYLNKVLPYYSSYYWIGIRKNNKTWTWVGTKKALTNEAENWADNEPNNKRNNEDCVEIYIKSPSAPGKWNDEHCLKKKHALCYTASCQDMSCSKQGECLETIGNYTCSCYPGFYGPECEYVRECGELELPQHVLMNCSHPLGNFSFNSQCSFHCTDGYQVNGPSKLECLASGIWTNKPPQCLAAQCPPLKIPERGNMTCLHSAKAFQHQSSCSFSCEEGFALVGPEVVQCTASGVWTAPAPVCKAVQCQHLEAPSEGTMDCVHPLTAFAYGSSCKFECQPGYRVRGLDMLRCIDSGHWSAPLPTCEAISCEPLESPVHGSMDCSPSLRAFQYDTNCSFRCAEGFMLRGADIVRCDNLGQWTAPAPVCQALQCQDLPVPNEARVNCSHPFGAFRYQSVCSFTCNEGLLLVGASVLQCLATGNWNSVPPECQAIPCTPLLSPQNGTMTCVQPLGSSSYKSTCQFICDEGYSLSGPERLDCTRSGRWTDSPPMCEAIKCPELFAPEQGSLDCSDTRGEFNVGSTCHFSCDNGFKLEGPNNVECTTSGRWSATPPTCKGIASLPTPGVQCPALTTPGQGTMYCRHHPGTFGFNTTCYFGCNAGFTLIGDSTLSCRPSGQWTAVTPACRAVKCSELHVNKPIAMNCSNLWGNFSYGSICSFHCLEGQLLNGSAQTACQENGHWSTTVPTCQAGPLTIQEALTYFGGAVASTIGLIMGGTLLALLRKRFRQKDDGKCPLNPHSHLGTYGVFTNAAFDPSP
- Assay: ELISA inhibition of recombinant P-selectin binding to immobilized SLe^x
- Condition Parameters: recombinant selectin, immobilized SLe^x, ELISA, mean of 3 determinations; read-out: IC50 Values Against SLe^x, P-Selectin
- Procedure: Relative Inhibitory Properties of Branched Chains Including Neu5Ac and/or GalNAcLe^x Against Recombinant Selectins Binding to Immobilized SLe^x ELISA inhibition studies were done as previously reported conditions. Ic50 values against immobilized SLe^x are the mean values of 3 determinations and were calculated according to published methodology.
For each record, write down the corresponding IC50.
Give bare numbers, in µM.

Consider the following items and state reported IC50 for each.
1. CO[C@@H]1O[C@H](CO)[C@@H](O[C@@H]2O[C@H](CO)[C@H](O)[C@H](O)[C@H]2NC(C)=O)[C@H](O[C@@H]2O[C@@H](C)[C@@H](O)[C@@H](O)[C@@H]2O)[C@H]1NC(C)=O [Compound 8b]
2. CO[C@H]1O[C@H](CO[C@@H]2O[C@H](CO)[C@@H](O[C@@H]3O[C@H](CO)[C@H](O)[C@H](O)[C@H]3NC(C)=O)[C@H](O[C@@H]3O[C@@H](C)[C@@H](O)[C@@H](O)[C@@H]3O)[C@H]2NC(C)=O)[C@H](O)[C@H](O[C@@H]2O[C@H](CO)[C@H](O)[C@H](O)[C@H]2O)[C@H]1NC(C)=O [Compound 14]
3. CO[C@H]1O[C@H](CO[C@@H]2O[C@H](CO)[C@@H](O[C@@H]3O[C@H](CO)[C@H](O)[C@H](O)[C@H]3NC(C)=O)[C@H](O[C@@H]3O[C@@H](C)[C@@H](O)[C@@H](O)[C@@H]3O)[C@H]2NC(C)=O)[C@H](O)[C@H](O[C@@H]2O[C@H](CO)[C@H](O)[C@H](O[C@]3(C(=O)O)C[C@H](O)[C@@H](NC(C)=O)[C@H]([C@H](O)[C@H](O)CO)O3)[C@H]2O)[C@H]1NC(C)=O [Compound 16]

Response line:
1: 400; 2: 400; 3: 85
